# reported FACS-Seq fitted mean (log10); entries follow
B1: library; a variant is named by its letters at N, in order (parent)
chain: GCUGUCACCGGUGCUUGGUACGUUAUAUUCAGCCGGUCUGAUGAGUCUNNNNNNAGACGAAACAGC

- Variants of: B1
- experiment.description: FACS-Seq fitted mean relative fluorescence mCherry/BFP with ligand (log10 relative fluorescence); HEK293T overexpressing SLC46A1; ligand concentration (+) FACS-Seq: 6 mM; higher = higher reporter protein expression
- experimental.parameters: with (6R,S)-folinic acid; ligand present: yes
Answer with a bare number; do not write a unit.

[
  {
    "mutant.designation": "CUGGCU",
    "FACS-Seq fitted mean (log10)": 0.55
  },
  {
    "mutant.designation": "GAGGUG",
    "FACS-Seq fitted mean (log10)": 0.505
  },
  {
    "mutant.designation": "GUAGGG",
    "FACS-Seq fitted mean (log10)": 0.643
  },
  {
    "mutant.designation": "GAAGAU",
    "FACS-Seq fitted mean (log10)": 0.379
  },
  {
    "mutant.designation": "AAACAC",
    "FACS-Seq fitted mean (log10)": 0.0733
  }
]

Next:
Query block: Provide FACS-Seq fitted mean (log10) value for the following variant: UGACCA
Result block: -0.0235

Reference source: the supplement of paper PMC6757056
